# Measurement target: hα7-wt nAChR (Homo sapiens)
# Construct: expressed in transfected cells; host or cells: GH4C1 cells (recombinant, stably over-expressing)
# Sequence (P36544 23-502): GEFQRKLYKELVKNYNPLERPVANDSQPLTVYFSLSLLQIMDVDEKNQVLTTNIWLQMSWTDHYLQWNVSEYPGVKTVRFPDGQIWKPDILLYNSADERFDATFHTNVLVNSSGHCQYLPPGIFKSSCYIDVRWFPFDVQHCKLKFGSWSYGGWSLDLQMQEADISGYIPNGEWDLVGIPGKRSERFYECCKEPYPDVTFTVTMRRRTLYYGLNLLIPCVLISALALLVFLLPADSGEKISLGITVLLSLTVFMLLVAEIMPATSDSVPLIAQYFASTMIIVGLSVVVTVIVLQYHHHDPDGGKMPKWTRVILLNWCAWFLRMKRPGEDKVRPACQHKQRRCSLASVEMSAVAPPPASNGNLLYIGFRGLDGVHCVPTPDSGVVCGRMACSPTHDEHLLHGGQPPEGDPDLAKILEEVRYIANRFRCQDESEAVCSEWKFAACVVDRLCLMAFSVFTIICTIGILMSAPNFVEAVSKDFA
# Protocol details: Whole-cell voltage-clamp recording, PAM type classification
# Assay type: cell-based
# Set-up: key: Type 1 compounds enhance the effect size of the current elicited by 1 mM choline but minimally alter the kinetics of the receptor.; Type 2 compounds enhance the effect size of the current elicited by 1 mM choline while reducing the rate and/or the extent of desensitization.; Type 3 compounds enhance the effect size of the current elicited by 1 mM choline. When tested at higher concentrations up to 10 μM they completely inhibit desensitization, in particular a 1 mM choline application of 250 milliseconds.; Type 4 compounds allow for an initial desensitization of the receptor followed by a re-opening of the receptor during agonist application
# Condition info: qualitative kinetic properties; 1 mM choline; hα7-wt nAChR-expressing GH4C1 cells
Kindly state PAM_type for each of the entries shown.
Could you respond with only the numeric value?

The reported value for CCC(O)Cn1nc(Nc2ccc(F)c(F)c2)nc1-c1ccnc(NCCOC)c1 (centres unmarked) [Compound E9] in terms of PAM_type is 2

Reported PAM_type for CCC(O)Cn1nc(Nc2ccc(F)c(F)c2)nc1-c1ccnc(C)c1 (single isomer, unassigned) [Compound E26] was 1

Measured PAM_type of CC[C@H](O)Cn1nc(Nc2cc(F)cc(OC)c2)nc1-c1cc(C)nc(C)c1.Cl [Compound E37] : 2

For this compound ( CCCC(O)Cn1nc(Nc2ccc(F)c(F)c2)nc1-c1cc(C)nc(C)c1 (single isomer, unassigned) [Compound E14] ), measured PAM_type is 2

Summary for this compound, CCNc1cc(-c2nc(Nc3ccc(F)c(F)c3)nn2CC(O)CC)ccn1 (centres unmarked) [Compound E25] : PAM_type is 1

// field: PAM_type; key: CCC(O)Cn1nc(Nc2ccc(F)c(F)c2)nc1-c1ccnc(C)c1 (single isomer, unassigned) [Compound E6] ; value = 2

Form: compound = CC[C@H](O)Cn1nc(Nc2ccc(F)c(C)c2)nc1-c1ccnc(C)c1 [Compound E19] ; PAM_type = 2

Short answer for CC[C@H](O)Cn1nc(Nc2ccc(F)c(F)c2)nc1-c1cc(C)nc(C)c1 [Compound E1] : PAM_type was 2
